B1: TPR t1 (parent)
chain: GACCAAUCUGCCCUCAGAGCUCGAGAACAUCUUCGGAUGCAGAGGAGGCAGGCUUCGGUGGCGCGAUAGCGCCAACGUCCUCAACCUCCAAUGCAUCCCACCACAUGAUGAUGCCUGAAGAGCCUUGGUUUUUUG

Variants of: B1
Assay: polymerase ribozyme fitness, log enrichment relative to wild type (log ratio); higher = more active; in vitro selection for triplet polymerase activity
Outcome Measure: polymerase ribozyme fitness (log ratio)
API note: the answer field is a bare number with no unit suffix.

Below, each entry is followed by its recorded polymerase ribozyme fitness (log ratio) result.
C79G U92C
-3.03
G61U C97A C124A
-2.39

Recorded polymerase ribozyme fitness (log ratio) of C15U C72U , please.
-1.62

Looking for the measured polymerase ribozyme fitness (log ratio) of G45U C70A C115A G128U , can you help?
-3.65

Field request: polymerase ribozyme fitness (log ratio) | item: C34A C123G
-0.401
